Tested on: SAOS-2
assay-method-text: Antitumor activity against p53 deficient human Saos2 cells after 72 hrs by MTT assay
Format: functional, cell-based
condition-summary: SAOS-2, 72 h
readout-kind: log10 of IC50 (log10 of the value in µM)
Form field - Quantity: IC50; Unit: µM; Scale: log10

Examples with their reported log10 of IC50 follow.
CCCCCNc1ccc2c(c1)NC(=S)C(c1ccc(Cl)cc1)N(C(C(=O)OC)c1ccc(Cl)cc1)C2=O (stereo not given)
1.32
COC(=O)C(c1ccc(Cl)cc1)N1C(=O)c2ccc(NCc3ccc4ccccc4c3)cc2NC(=S)C1c1ccc(Cl)cc1 (stereo not given)
1.96
COC(=O)C(c1ccc(Cl)cc1)N1C(=O)c2ccc(NCC3CC3)cc2NC(=S)C1c1ccc(Cl)cc1 (stereo not given)
1.28
COC(=O)C(c1ccc(Cl)cc1)N1C(=O)c2ccc(NCc3ccc(C(F)(F)F)cc3)cc2NC(=S)C1c1ccc(Cl)cc1 (stereo not given)
0.46
CCCCNc1ccc2c(c1)NC(=S)C(c1ccc(Cl)cc1)N(C(C(=O)OC)c1ccc(Cl)cc1)C2=O (stereo not given)
1.45
COC(=O)C(c1ccc(Cl)cc1)N1C(=O)c2ccc(NCc3ccc(Cl)cc3)cc2NC(=S)C1c1ccc(Cl)cc1 (stereo not given)
1.12
COC(=O)C(c1ccc(Cl)cc1)N1C(=O)c2ccc(NCc3ccco3)cc2NC(=S)C1c1ccc(Cl)cc1 (stereo not given)
1.05
COC(=O)C(c1ccc(Cl)cc1)N1C(=O)c2ccc(NCc3ccc(OC)cc3)cc2NC(=S)C1c1ccc(Cl)cc1 (stereo not given)
1.94

// returns reported log10 of IC50 for input COC(=O)C(c1ccc(Cl)cc1)N1C(=O)c2ccc(NCc3ccccc3)cc2NC(=S)C1c1ccc(Cl)cc1 (stereo not given)
1.25

Item under review: CCCNc1ccc2c(c1)NC(=S)C(c1ccc(Cl)cc1)N(C(C(=O)OC)c1ccc(Cl)cc1)C2=O (stereo not given) . Reported log10 of IC50?
1.09

Need log10 of IC50 of COC(=O)C(c1ccc(Cl)cc1)N1C(=O)c2ccccc2NC(=S)C1c1ccc(Cl)cc1 (stereo not given) , thanks.
0.82

log10 of IC50 lookup needed for COC(=O)C(c1ccc(Cl)cc1)N1C(=O)c2ccc(NCc3ccc(F)cc3)cc2NC(=S)C1c1ccc(Cl)cc1 (stereo not given) , thanks.
0.99

Sample COc1ccc(C2=N[C@@H](c3ccc(Cl)cc3)[C@@H](c3ccc(Cl)cc3)N2C(=O)N2CCNC(=O)C2)c(OC(C)C)c1 — what was its log10 of IC50?
1.74

Quick one: log10 of IC50 for COC(=O)C(c1ccc(Cl)cc1)N1C(=O)c2ccccc2NC(=O)C1c1ccc(Cl)cc1 (stereo not given) ?
0.75

What value of log10 of IC50 has been reported for the following molecule? COC(=O)C(c1ccc(Cl)cc1)N1C(=O)c2ccc(NCC(C)(C)C)cc2NC(=S)C1c1ccc(Cl)cc1 (stereo not given)
0.34

###

A collection of compounds and their measured pKi
target-desc: Tumour suppressor p53/oncoprotein Mdm2 (Homo sapiens, UniProt Q00987)
Sequence (P04637 whole entry): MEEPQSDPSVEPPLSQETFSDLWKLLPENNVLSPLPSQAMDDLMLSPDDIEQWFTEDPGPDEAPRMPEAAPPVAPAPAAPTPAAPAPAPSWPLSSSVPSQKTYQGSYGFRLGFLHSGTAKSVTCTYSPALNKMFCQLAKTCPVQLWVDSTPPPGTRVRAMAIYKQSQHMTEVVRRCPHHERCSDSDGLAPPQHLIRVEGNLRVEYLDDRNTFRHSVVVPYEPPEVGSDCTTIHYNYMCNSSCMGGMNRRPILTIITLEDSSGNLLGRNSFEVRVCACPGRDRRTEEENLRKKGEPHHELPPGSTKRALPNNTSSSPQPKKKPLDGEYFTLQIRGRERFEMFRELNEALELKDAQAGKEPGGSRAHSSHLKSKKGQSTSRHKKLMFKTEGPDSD
Sequence (Q00987 whole entry): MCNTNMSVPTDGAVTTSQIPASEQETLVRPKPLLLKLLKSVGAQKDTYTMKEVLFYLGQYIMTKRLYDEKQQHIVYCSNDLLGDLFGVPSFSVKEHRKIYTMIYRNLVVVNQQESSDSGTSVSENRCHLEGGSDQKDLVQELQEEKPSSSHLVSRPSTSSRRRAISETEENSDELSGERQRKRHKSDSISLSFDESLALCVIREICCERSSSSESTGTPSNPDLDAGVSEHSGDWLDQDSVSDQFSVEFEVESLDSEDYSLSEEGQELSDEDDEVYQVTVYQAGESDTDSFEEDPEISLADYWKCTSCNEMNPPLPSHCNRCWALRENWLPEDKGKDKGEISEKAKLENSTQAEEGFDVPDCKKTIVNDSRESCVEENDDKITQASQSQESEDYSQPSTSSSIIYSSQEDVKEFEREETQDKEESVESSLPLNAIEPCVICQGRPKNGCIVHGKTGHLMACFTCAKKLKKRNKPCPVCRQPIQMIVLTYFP
assay-method-text: Inhibition of Mdm2-p53 protein interaction preincubated for 1 hr by fluorescence polarization assay
# log scale: pKi equals minus log10 of the concentration in mol/L

Known pKi results, listed for orientation:
COC(=O)C(c1ccc(Cl)cc1)N1C(=O)c2ccccc2NC(=S)C1c1ccc(Cl)cc1 (stereo not given)
6.28
COC(=O)C(c1ccc(Cl)cc1)N1C(=O)c2ccc(NCc3ccc(F)cc3)cc2NC(=S)C1c1ccc(Cl)cc1 (stereo not given)
5.77
COC(=O)C(c1ccc(Cl)cc1)N1C(=O)c2ccccc2NC(=O)C1c1ccc(Cl)cc1 (stereo not given)
4.97

Entry COC(=O)C(c1ccc(Cl)cc1)N1C(=O)c2ccc(NCC(C)C)cc2NC(=S)C1c1ccc(Cl)cc1 (stereo not given) : reported pKi = ?
6.49

Please report the recorded pKi for CCCNc1ccc2c(c1)NC(=S)C(c1ccc(Cl)cc1)N(C(C(=O)OC)c1ccc(Cl)cc1)C2=O (stereo not given) .
5.99

Return reported pKi; argument: COC(=O)C(c1ccc(Cl)cc1)N1C(=O)c2ccc(NCC3CC3)cc2NC(=S)C1c1ccc(Cl)cc1 (stereo not given)
5.46

###

target-desc: Tumour suppressor p53/oncoprotein Mdm2 (Homo sapiens, UniProt Q00987)
assay-method-text: Inhibition of Mdm2-p53 protein interaction preincubated for 1 hr by fluorescence polarization assay
readout-kind: pKi
Scale explanation: pKi corresponds to minus log10 of a concentration expressed in moles per litre.

COC(=O)C(c1ccc(Cl)cc1)N1C(=O)c2ccc(NCc3ccccc3)cc2NC(=S)C1c1ccc(Cl)cc1 (centres undefined)
5.65
CCCCCNc1ccc2c(c1)NC(=S)C(c1ccc(Cl)cc1)N(C(C(=O)OC)c1ccc(Cl)cc1)C2=O (centres undefined)
4.82

Next:
// lookup pKi for COC(=O)C(c1ccc(Cl)cc1)N1C(=O)c2ccc(NCc3ccco3)cc2NC(=S)C1c1ccc(Cl)cc1 (centres undefined)
4.37

###

target-desc: Tumour suppressor p53/oncoprotein Mdm2 (Homo sapiens)
assay-method-text: Inhibition of Mdm2-p53 protein interaction preincubated for 1 hr by fluorescence polarization assay
This listing pairs molecules with measured pKi.
// pKi here means minus log10 of the molar concentration (mol/L)

COC(=O)C(c1ccc(Cl)cc1)N1C(=O)c2ccc(NCc3ccc(C(F)(F)F)cc3)cc2NC(=S)C1c1ccc(Cl)cc1 (centres undefined)
5.27

Continue with the next molecule.
Lab request: please report pKi under test system Tumour suppressor p53/oncoprotein Mdm2 (Homo sapiens) for CCCCNc1ccc2c(c1)NC(=S)C(c1ccc(Cl)cc1)N(C(C(=O)OC)c1ccc(Cl)cc1)C2=O (centres undefined)
4.30
